# measured-on: USP25 (USP25-His6, Boston Biochem E-546) (Homo sapiens)
# Construct: His6; purchased Boston Biochem E-546
# Sequence (Q9UHP3 whole entry): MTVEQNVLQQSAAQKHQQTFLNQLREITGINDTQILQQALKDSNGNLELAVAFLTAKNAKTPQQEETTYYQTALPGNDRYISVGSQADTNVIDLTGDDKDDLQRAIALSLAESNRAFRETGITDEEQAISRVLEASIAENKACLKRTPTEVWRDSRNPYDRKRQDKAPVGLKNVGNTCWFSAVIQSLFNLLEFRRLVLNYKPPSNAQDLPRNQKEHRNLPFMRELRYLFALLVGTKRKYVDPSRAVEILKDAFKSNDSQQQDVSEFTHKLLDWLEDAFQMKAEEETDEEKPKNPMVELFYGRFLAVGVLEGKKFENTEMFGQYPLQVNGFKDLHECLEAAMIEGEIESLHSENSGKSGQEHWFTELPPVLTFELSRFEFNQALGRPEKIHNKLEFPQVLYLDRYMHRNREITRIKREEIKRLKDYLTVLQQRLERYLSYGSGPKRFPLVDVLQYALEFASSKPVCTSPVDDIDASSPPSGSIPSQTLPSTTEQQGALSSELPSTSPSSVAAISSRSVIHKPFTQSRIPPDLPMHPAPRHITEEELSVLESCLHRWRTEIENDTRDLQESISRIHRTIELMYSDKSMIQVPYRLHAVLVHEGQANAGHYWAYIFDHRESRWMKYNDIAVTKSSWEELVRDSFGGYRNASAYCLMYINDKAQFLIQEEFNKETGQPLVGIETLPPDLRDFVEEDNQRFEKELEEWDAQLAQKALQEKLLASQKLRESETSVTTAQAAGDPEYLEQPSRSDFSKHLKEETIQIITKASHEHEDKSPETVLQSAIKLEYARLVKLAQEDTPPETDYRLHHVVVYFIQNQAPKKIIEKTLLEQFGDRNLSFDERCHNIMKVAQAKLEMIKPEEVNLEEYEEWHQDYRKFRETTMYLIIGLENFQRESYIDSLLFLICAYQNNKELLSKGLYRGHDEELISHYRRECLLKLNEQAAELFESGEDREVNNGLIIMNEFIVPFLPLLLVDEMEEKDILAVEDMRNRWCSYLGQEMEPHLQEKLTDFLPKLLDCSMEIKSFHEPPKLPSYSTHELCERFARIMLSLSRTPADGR
# run-description: Ubiquitin-Rhodamine 110 Assay for USP25 Activity, Example A-2
# Format: biochemical
# reported-conditions: Ubiquitin-Rhodamine 110 assay, Example A-2; read-out: USP25 A-2 IC50 range
Quick reference: IC50 of the listed items.

Exercise: Form field: reported IC50 of `Cc1ccc2c(N)c(C(=O)N[C@H]3COc4cc(N5CC[C@@H](N)C5)ccc4C3)sc2n1`
Key: 200 to 2000 nM

Exercise: Form field: reported IC50 of `CO[C@@H]1CN(c2cc3c(c(F)c2F)C[C@@H](NC(=O)c2sc4nc(C)ccc4c2N)CO3)C[C@H]1N`
Key: 200 to 2000 nM

Exercise: Form field: reported IC50 of `Cc1ccc2c(N)c(C(=O)N[C@H]3COc4c(F)c(N5CC6CNCC(C5)O6)cc(F)c4C3)sc2n1`
Key: 1 to 50 nM

Exercise: Form field: reported IC50 of `CCO[C@H]1CN(c2ccc3c(c2)OC[C@H](NC(=O)c2sc4nc(C)cc(C)c4c2N)C3)C[C@H]1N`
Key: 200 to 2000 nM

---

# measured-on: USP25 (USP25-His6, Boston Biochem E-546) (Homo sapiens)
# Construct: His6; purchased Boston Biochem E-546
# run-description: Ubiquitin-Rhodamine 110 Assay for USP25 Activity, Example A-2
# Assay type: biochemical
# reported-conditions: Ub-Rh110 assay, Example A-2; read-out: USP25 A-2 IC50 range
pIC50: −log10 of the molar value.
Quick reference: pIC50 of the listed items.

compound	pIC50
Cc1ccc2c(N)c(C(=O)N[C@@H]3COc4cc(N5CCN[C@H](C)[C@H]5C)ccc4C3)sc2n1 (single isomer, unassigned)	7.30 to 9.00
Cc1ccc2c(N)c(C(=O)N[C@@H]3COc4cc(N5CC6CC(C5)N6)cc(F)c4C3)sc2n1 (single isomer, unassigned)	6.70 to 7.30

Now examine the next entry.
Exercise: Form field: reported pIC50 of `Cc1cc(C)c2c(N)c(C(=O)N[C@H]3COc4c(C#N)c(N5CCNCC5)cc(F)c4C3)sc2n1`
Key: 5.70 to 6.70

---

Quick reference: IC50 of the listed items.
# measured-on: USP25 (USP25-His6, Boston Biochem E-546) (Homo sapiens)
# Construct: His6; purchased Boston Biochem E-546
# run-description: Ubiquitin-Rhodamine 110 Assay for USP25 Activity, Example A-2
# Type: biochemical
# reported-conditions: Ubiquitin-Rhodamine 110 assay, Example A-2; read-out: USP25 A-2 IC50 range

compound	reported-property	reading
Cc1ccc2c(N)c(C(=O)N[C@H]3COc4cc(C5(F)CCNCC5)ccc4C3)sc2n1 [Example 8-1]	IC50	0.05 to 0.2 µM
Cc1ccc2c(N)c(C(=O)N[C@H]3CCc4nc(N5CC6CCC(C5)N6)cc(F)c4C3)sc2n1 [Example 23-18]	IC50	0.2 to 2 µM
Cc1nc2sc(C(=O)N[C@H]3COc4cc(N5CCNCC5)ncc4C3)c(N)c2cc1F [Example 72]	IC50	0.2 to 2 µM
CO[C@H]1CN(c2cc3c(cc2F)C[C@@H](NC(=O)c2sc4nc(C)ccc4c2N)CO3)C[C@@H]1N [Example 94]	IC50	0.2 to 2 µM
Cc1ccc2c(N)c(C(=O)N[C@H]3CCc4cc(N5CCN[C@H](CO)C5)ccc4C3)sc2n1 (single isomer, unassigned) [Example 7-8]	IC50	> 2 µM
COC[C@H]1CNCCN1c1ccc2c(c1)OC[C@H](NC(=O)c1sc3nc(C)ccc3c1N)C2 [Example 156]	IC50	0.2 to 2 µM

Now examine the next entry.
Exercise: Form field: reported IC50 of Cc1ccc2c(N)c(C(=O)N[C@H]3COc4cc(N5CC[C@]6(CCCNC6)C5)ccc4C3)sc2n1 [Example 3-13]
Key: 0.2 to 2 µM
